All values here come from patent EP0747380B1.

System: eosinophil peroxidase activity
PROTOCOL TEXT: Uterine eosinophil peroxidase (EPO) assay, OVX rat, four day dosing regimen
CONDITION DESCRIPTION: Dose 10 mg/kg, oral, daily for 4 days, OVX rats; * = significantly different than OVX control
MEASURED METRIC: Uterine EPO (Vmax)

COMPOUND: O=C(c1ccc(OCCN2C(=O)CCC2=O)cc1)c1c(-c2ccc(O)cc2)sc2cc(O)ccc12 [Compound 13]
Uterine EPO (Vmax): 2.5

I. O=C(NCCOc1ccc(C(=O)c2c(-c3ccc(O)cc3)sc3cc(O)ccc23)cc1)NC1CCCCC1 [Compound 20]
II. CC(C)(C)C(=O)N1CCC(Oc2ccc(C(=O)c3c(-c4ccc(O)cc4)sc4cc(O)ccc34)cc2)CC1 [Compound 23]
Q: Between I and II , which one shows the larger Uterine EPO (Vmax) value? // respond with label for picked entry
Ans: II
(II: 6.7, I: 2.9)

---

Test system: eosinophil peroxidase activity
PROTOCOL TEXT: Uterine eosinophil peroxidase (EPO) assay, OVX rat, four day dosing regimen
CONDITION DESCRIPTION: Dose 10 mg/kg, oral, daily for 4 days, OVX rats; * = significantly different than OVX control
MEASURED METRIC: Uterine EPO (Vmax)

COMPOUND: CC(C#N)Oc1ccc(C(=O)c2c(-c3ccc(O)cc3)sc3cc(O)ccc23)cc1 (stereo not shown) [Compound 16]
SYSTEM TESTED: eosinophil peroxidase activity
Uterine EPO (Vmax): 23.4
//
COMPOUND: CC(=O)NCCOc1ccc(C(=O)c2c(-c3ccc(O)cc3)sc3cc(O)ccc23)cc1 [Compound 26]
SYSTEM TESTED: eosinophil peroxidase activity
Uterine EPO (Vmax): 13.6
//
COMPOUND: CCCCN(C)C(=O)COc1ccc(C(=O)c2c(-c3ccc(O)cc3)sc3cc(O)ccc23)cc1 [Compound 10]
SYSTEM TESTED: eosinophil peroxidase activity
Uterine EPO (Vmax): 17.0

---

Test system: eosinophil peroxidase activity
PROTOCOL TEXT: Uterine eosinophil peroxidase (EPO) assay, OVX rat, four day dosing regimen
CONDITION DESCRIPTION: Dose 10 mg/kg, oral, daily for 4 days, OVX rats; * = significantly different than OVX control
MEASURED METRIC: Uterine EPO (Vmax)

Observe how each entry below is paired with its result.
MOLECULE: O=C(c1ccc(OCCN2CCCC2=O)cc1)c1c(-c2ccc(O)cc2)sc2cc(O)ccc12 [Compound 6]
SYSTEM TESTED: eosinophil peroxidase activity
VALUE: 3.7
--
MOLECULE: O=C(c1ccc(OCCN2CCCCC2=O)cc1)c1c(-c2ccc(O)cc2)sc2cc(O)ccc12 [Compound 3]
SYSTEM TESTED: eosinophil peroxidase activity
VALUE: 8.9

A. O=C(c1ccc(OCCNC(=O)C2CCCCC2)cc1)c1c(-c2ccc(O)cc2)sc2cc(O)ccc12 [Compound 21]
B. O=C(c1ccc(OCC(=O)N2CCCCC2)cc1)c1c(-c2ccc(O)cc2)sc2cc(O)ccc12 [Compound 9]
C. O=C(NCCOc1ccc(C(=O)c2c(-c3ccc(O)cc3)sc3cc(O)ccc23)cc1)c1ccccc1 [Compound 18]
Q: Ranking field: Uterine EPO (Vmax); order: falling. Field: ranking. Enter the labels in the order requested.
Ans: B, C, A
(B: 32, C: 3.6, A: 2.4)

---

Tested on: eosinophil peroxidase activity
PROTOCOL TEXT: Uterine eosinophil peroxidase (EPO) assay, OVX rat, four day dosing regimen
CONDITION DESCRIPTION: Dose 1 mg/kg, oral, daily for 4 days, OVX rats; * = significantly different than OVX control
MEASURED METRIC: Uterine EPO (Vmax)

MOLECULE: CCCCN(C)C(=O)COc1ccc(C(=O)c2c(-c3ccc(O)cc3)sc3cc(O)ccc23)cc1
Uterine EPO (Vmax): 3.1

1. O=C(c1ccc(OCCNC(=O)C2CCCCC2)cc1)c1c(-c2ccc(O)cc2)sc2cc(O)ccc12
2. CC(C)(C)C(=O)N1CCC(Oc2ccc(C(=O)c3c(-c4ccc(O)cc4)sc4cc(O)ccc34)cc2)CC1
3. O=C(c1ccc(OCCN2CCCC2=O)cc1)c1c(-c2ccc(O)cc2)sc2cc(O)ccc12
4. CN(C)C(=O)COc1ccc(C(=O)c2c(-c3ccc(O)cc3)sc3cc(O)ccc23)cc1
5. CC(=O)NCCOc1ccc(C(=O)c2c(-c3ccc(O)cc3)sc3cc(O)ccc23)cc1
Q: In this exercise, place the 5 molecules in ascending sequence of their recorded Uterine EPO (Vmax). Put the labels in the order asked and list them.
Ans: 5, 3, 1, 2, 4
(5: 0.7, 3: 1.4, 1: 2.6, 2: 3.8, 4: 6.7)

I. N#CCOc1ccc(C(=O)c2c(-c3ccc(O)cc3)sc3cc(O)ccc23)cc1
II. CC(=O)N(CCOc1ccc(C(=O)c2c(-c3ccc(O)cc3)sc3cc(O)ccc23)cc1)C1CCCCC1
III. O=C(c1ccc(OCCN2CCCCC2=O)cc1)c1c(-c2ccc(O)cc2)sc2cc(O)ccc12
Q: Which order do these items take when sorted by rising Uterine EPO (Vmax)? List them. // respond by listing labels in the order requested
Ans: I, II, III
(I: 2.4, II: 3.7, III: 7.8)

I. O=C(c1ccc(OCCN2C(=O)CCC2=O)cc1)c1c(-c2ccc(O)cc2)sc2cc(O)ccc12
II. O=C(NCCOc1ccc(C(=O)c2c(-c3ccc(O)cc3)sc3cc(O)ccc23)cc1)NC1CCCCC1
Q: Which of the two gives a bigger number for Uterine EPO (Vmax): I or II ? Please reply using the label of the selected record.
Ans: II
(II: 2.5, I: 1.7)
